The following molecules have recorded DPX2 Viability @ 6.25 μM on DPX2 cells.
Write the quantity with the unit trailing the number.

Check out these entries, answers already filled in.
[[record]]
molecule = "CO[C@H]1/C=C/O[C@@]2(C)Oc3c(C)c(O)c4c(=O)c(c5oc6cc(C)cc(N7CCN(C)CC7)c6nc-5c4c3C2=O)NC(=O)/C(C)=C\\C=C\\[C@H](C)[C@H](O)[C@@H](C)[C@@H](O)[C@@H](C)[C@H](OC(C)=O)[C@@H]1C [Compound 30a]"
tested_system = "DPX2 cells"
reading = "92%"

[[record]]
molecule = "CO[C@H]1/C=C/O[C@@]2(C)Oc3c(C)c(O)c4c(=O)c(c5oc6cc(N7CCN(C(=O)c8cccc(-c9ccccn9)c8)CC7)cc(OCc7ccc(CN8CCOCC8)cc7)c6nc-5c4c3C2=O)NC(=O)/C(C)=C\\C=C\\[C@H](C)[C@H](O)[C@@H](C)[C@@H](O)[C@@H](C)[C@H](OC(C)=O)[C@@H]1C [Compound 17r]"
tested_system = "DPX2 cells"
reading = "105%"


Would you kindly look at the next entry?
Short answer for CO[C@H]1/C=C/O[C@@]2(C)Oc3c(C)c(O)c4c(=O)c(c5oc6cc(N7CCC(CC(=O)O)CC7)cc(N7CCC(CC(=O)O)CC7)c6nc-5c4c3C2=O)NC(=O)/C(C)=C\C=C\[C@H](C)[C@H](O)[C@@H](C)[C@@H](O)[C@@H](C)[C@H](OC(C)=O)[C@@H]1C [Compound 17v] : DPX2 Viability @ 6.25 μM was 110%
